Taken from patent US20240270762A1.

# measurement target: PBP3 from Acinetobacter baumannii (ATCC 19606) (Acinetobacter baumannii, UniProt A0ABX6CK25)
# Sequence (A0ABX6CK25 64-610): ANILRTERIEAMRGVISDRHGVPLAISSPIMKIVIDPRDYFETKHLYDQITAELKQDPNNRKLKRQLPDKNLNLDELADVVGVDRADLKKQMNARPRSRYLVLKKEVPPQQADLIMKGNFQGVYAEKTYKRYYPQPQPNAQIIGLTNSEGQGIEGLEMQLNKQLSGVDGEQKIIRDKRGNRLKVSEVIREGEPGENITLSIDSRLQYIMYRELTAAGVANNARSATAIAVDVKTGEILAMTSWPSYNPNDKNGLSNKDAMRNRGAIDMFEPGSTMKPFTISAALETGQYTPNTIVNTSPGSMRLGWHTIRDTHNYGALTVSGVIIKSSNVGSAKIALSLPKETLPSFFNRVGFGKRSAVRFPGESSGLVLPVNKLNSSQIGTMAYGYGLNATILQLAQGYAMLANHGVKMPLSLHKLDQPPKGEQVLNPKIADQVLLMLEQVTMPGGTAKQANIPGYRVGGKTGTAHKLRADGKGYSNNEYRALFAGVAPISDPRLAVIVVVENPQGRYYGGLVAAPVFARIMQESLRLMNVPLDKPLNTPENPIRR
observable: IC50

>>> observed_measurement("O=C(NCCCN1CCN(C(=O)NC(C(=O)N[C@H]2Cc3ccc(F)c(C(=O)O)c3OB2O)c2cc(F)c(O)c(O)c2Cl)C(=O)C1=O)c1c(F)cc(O)cc1Cl (some centres unmarked)")
"< 10 µM"
>>> observed_measurement("O=C(CN1CCN(C(=O)NC(C(=O)N[C@H]2Cc3ccc(F)c(C(=O)O)c3OB2O)c2cc(F)c(O)c(O)c2Cl)C(=O)C1=O)NCc1ccccc1 (some centres unmarked)")
"< 10 µM"
>>> observed_measurement("O=C(NCCCN1CCN(C(=O)N[C@@H](C(=O)N[C@H]2Cc3ccc(F)c(C(=O)O)c3OB2O)c2cc(F)c(O)c(O)c2Cl)C(=O)C1=O)c1cc(F)c(O)c(F)c1")
"< 10 µM"
>>> observed_measurement("O=C(NCCCN1CCN(C(=O)N[C@H](C(=O)N[C@H]2Cc3ccc(F)c(C(=O)O)c3OB2O)c2cc(F)c(O)c(O)c2Cl)C(=O)C1=O)c1ccc(O)cc1Cl (single isomer, unassigned)")
"10 to 50 µM"
>>> observed_measurement("O=C(NCCS(=O)(=O)N1CCN(C(=O)NC(C(=O)N[C@H]2Cc3ccc(F)c(C(=O)O)c3OB2O)c2cc(F)c(O)c(O)c2Cl)C1=O)c1ccncc1 (some centres unmarked)")
"< 10 µM"
